# Test system: Staphylococcus aureus
# experiment description: Antimicrobial activity against methicillin-resistant Staphylococcus aureus 309-8 clinical isolate after 16 hrs by broth microdilution method
# Assay type: functional
# test context: 309-8, 16 h
Each entry below lists one item and its recorded MIC value.
Answer in µg/mL, number only, no unit symbol.

Guide cases for MIC, answers given:
sample smiles | value units | MIC
COc1ccc(NC(=S)N/N=C2\C(=O)Nc3c(Br)cccc32)cc1 | µg/mL | 1.56
Cc1ccc(NC(=S)N/N=C2\C(=O)Nc3c(Cl)cccc32)cc1 | µg/mL | 0.78
O=C1Nc2c(Cl)cccc2/C1=N/NC(=S)Nc1ccccc1 | µg/mL | 1.56
Cc1cccc(NC(=S)N/N=C2\C(=O)Nc3c(F)cccc32)c1 | µg/mL | 0.78

Moving on to the next compound.
Input: Need MIC, item O=C1Nc2c(Br)cccc2/C1=N/NC(=S)Nc1ccc(F)cc1
Output: 0.78

----------
# System: Staphylococcus aureus
# experiment description: Antimicrobial activity against methicillin-resistant Staphylococcus aureus 309-8 clinical isolate after 16 hrs by broth microdilution method
# Type: functional
# test context: 309-8, 16 h
Exam item: assign yes to entries whose MIC is below 3 mg/L and no to entries at or above 3 mg/L. Note that a value of exactly 3 mg/L receives no.

Some solved entries appear below for comparison.
sample smiles | class
COc1ccc(NC(=S)N/N=C2\C(=O)Nc3c(Cl)cccc32)cc1 | no
Cc1cccc2c1NC(=O)/C2=N\NC(=S)Nc1ccc(F)cc1 | yes
O=C1Nc2c(I)cccc2/C1=N/NC(=S)Nc1ccc(F)cc1 | yes

Input: For O=C1Nc2c(Cl)cccc2/C1=N/NC(=S)Nc1cccc(Cl)c1 , is the recorded MIC below the cut-off of 3 mg/L?
Output: yes

Input: For Cc1ccc(NC(=S)N/N=C2\C(=O)Nc3c(Br)cccc32)cc1 , is the recorded MIC below the cut-off of 3 mg/L?
Output: yes

Input: For O=C1Nc2c(F)cccc2/C1=N/NC(=S)Nc1cccc(Cl)c1 , is the recorded MIC below the cut-off of 3 mg/L?
Output: yes

Input: For Cc1ccccc1NC(=S)N/N=C1\C(=O)Nc2c(Br)cccc21 , is the recorded MIC below the cut-off of 3 mg/L?
Output: yes

Input: For O=C1Nc2c(I)cccc2/C1=N/NC(=S)Nc1cccc(Cl)c1 , is the recorded MIC below the cut-off of 3 mg/L?
Output: no

Input: For O=C1Nc2c(Br)cccc2/C1=N/NC(=S)Nc1ccc(Br)cc1 , is the recorded MIC below the cut-off of 3 mg/L?
Output: yes

Input: For O=C1Nc2c(I)cccc2/C1=N/NC(=S)Nc1ccc(Br)cc1 , is the recorded MIC below the cut-off of 3 mg/L?
Output: no

Input: For COc1cccc(NC(=S)N/N=C2\C(=O)Nc3c(I)cccc32)c1 , is the recorded MIC below the cut-off of 3 mg/L?
Output: no

----------
# Tested on: Enterococcus faecalis
# experiment description: Antimicrobial activity against Enterococcus faecalis VRE-309 after 16 hrs by broth microdilution method
# Type: functional
# test context: VRE-309, 16 h
Each entry below lists one item and its recorded MIC value.
Answer in µg/mL, number only, no unit symbol.

sample smiles | MIC [µg/mL]
COc1cccc(NC(=S)N/N=C2\C(=O)Nc3c(I)cccc32)c1 | 25
O=C1Nc2c(I)cccc2/C1=N/NC(=S)Nc1ccc(Br)cc1 | 3.12
O=C1Nc2c(I)cccc2/C1=N/NC(=S)Nc1cccc(F)c1 | 3.12
O=C1Nc2c(I)cccc2/C1=N/NC(=S)Nc1ccc(Cl)cc1 | 3.12
O=C1Nc2c(Br)cccc2/C1=N/NC(=S)Nc1ccc(F)cc1 | 1.56
Cc1ccc(NC(=S)N/N=C2\C(=O)Nc3c(C)cccc32)cc1 | 3.12
O=C1Nc2c(Cl)cccc2/C1=N/NC(=S)Nc1cccc(Cl)c1 | 1.56
O=C1Nc2c(I)cccc2/C1=N/NC(=S)Nc1cccc(Cl)c1 | 3.12

Input: Short answer please: MIC, Enterococcus faecalis, entry O=C1Nc2c(Cl)cccc2/C1=N/NC(=S)Nc1cccc(F)c1
Output: 1.56

----------
Each entry below lists one item and its recorded MIC value.
# System: Staphylococcus aureus
# experiment description: Antimicrobial activity against methicillin-resistant Staphylococcus aureus 309-7 clinical isolate after 16 hrs by broth microdilution method
# Assay type: functional
# test context: 309-7, 16 h
Answer in µg/mL, number only, no unit symbol.

Input: Short answer please: MIC, Staphylococcus aureus, entry COc1ccc(NC(=S)N/N=C2\C(=O)Nc3c(F)cccc32)cc1
Output: 1.56

Input: Short answer please: MIC, Staphylococcus aureus, entry O=C1Nc2c(Cl)cccc2/C1=N/NC(=S)Nc1cccc(Cl)c1
Output: 0.78

Input: Short answer please: MIC, Staphylococcus aureus, entry O=C1Nc2c(I)cccc2/C1=N/NC(=S)Nc1cccc(Cl)c1
Output: 3.12

----------
Each entry below lists one item and its recorded MIC value.
# Test system: Enterococcus faecalis
# experiment description: Antimicrobial activity against vancomycin-susceptible Enterococcus faecalis after 16 hrs by broth microdilution method
# Format: functional

Guide cases for MIC, answers given:
sample smiles | MIC
O=C1Nc2c(Br)cccc2/C1=N/NC(=S)Nc1ccc(Cl)cc1 | 3.12 µg/mL
Cc1ccc(NC(=S)N/N=C2\C(=O)Nc3c(Cl)cccc32)cc1 | 6.25 µg/mL
Cc1cccc2c1NC(=O)/C2=N\NC(=S)Nc1ccc(Cl)cc1 | 3.12 µg/mL
O=C1Nc2c(Cl)cccc2/C1=N/NC(=S)Nc1ccccc1 | 6.25 µg/mL
O=C1Nc2c(I)cccc2/C1=N/NC(=S)Nc1ccc(Cl)cc1 | 6.25 µg/mL
O=C1Nc2c(Cl)cccc2/C1=N/NC(=S)Nc1cccc(F)c1 | 3.12 µg/mL

Moving on to the next compound.
Input: Need MIC, item COc1ccc(NC(=S)N/N=C2\C(=O)Nc3c(Br)cccc32)cc1
Output: > 100 µg/mL

----------
# Tested on: Enterococcus faecalis
# experiment description: Antimicrobial activity against Enterococcus faecalis VRE-309 after 16 hrs by broth microdilution method
# Assay type: functional
# test context: VRE-309, 16 h
measured quantity: MIC (µg/mL)
Answer in µg/mL, number only, no unit symbol.

sample smiles | target system | reported result
Cc1ccccc1NC(=S)N/N=C1\C(=O)Nc2c(I)cccc21 | Enterococcus faecalis | 6.25
O=C1Nc2c(Br)cccc2/C1=N/NC(=S)Nc1ccc(Br)cc1 | Enterococcus faecalis | 1.56
O=C1Nc2c(F)cccc2/C1=N/NC(=S)Nc1cccc(F)c1 | Enterococcus faecalis | 1.56
O=C1Nc2c(Cl)cccc2/C1=N/NC(=S)Nc1ccc(Cl)cc1 | Enterococcus faecalis | 1.56

Input: Need MIC, item Cc1cccc(NC(=S)N/N=C2\C(=O)Nc3c(F)cccc32)c1
Output: 3.12

----------
# Test system: Staphylococcus aureus
# experiment description: Antimicrobial activity against methicillin-resistant Staphylococcus aureus 309-7 clinical isolate after 16 hrs by broth microdilution method
# Type: functional
# test context: 309-7, 16 h
measured quantity: MIC (µg/mL)
Answer in µg/mL, number only, no unit symbol.

Input: Need MIC, item O=C1Nc2c(Cl)cccc2/C1=N/NC(=S)Nc1ccc(Cl)cc1
Output: 0.78

Input: Need MIC, item COc1cccc(NC(=S)N/N=C2\C(=O)Nc3c(Br)cccc32)c1
Output: 0.78

Input: Need MIC, item O=C1Nc2c(I)cccc2/C1=N/NC(=S)Nc1cccc(F)c1
Output: 0.78

Input: Need MIC, item O=C1Nc2c(Br)cccc2/C1=N/NC(=S)Nc1ccc(Cl)cc1
Output: 0.39

Input: Need MIC, item O=C1Nc2c(F)cccc2/C1=N/NC(=S)Nc1cccc(F)c1
Output: 0.39

----------
# System: Enterococcus faecalis
# experiment description: Antimicrobial activity against vancomycin-susceptible Enterococcus faecalis after 16 hrs by broth microdilution method
# Format: functional
measured quantity: MIC (µg/mL)
Answer in µg/mL, number only, no unit symbol.

Guide cases for MIC, answers given:
sample smiles | value units | MIC
O=C1Nc2c(I)cccc2/C1=N/NC(=S)Nc1ccc(Br)cc1 | µg/mL | 12.5
Cc1cccc2c1NC(=O)/C2=N\NC(=S)Nc1ccc(F)cc1 | µg/mL | 3.12
CN[C@H](CC(C)C)C(=O)N[C@H]1C(=O)N[C@@H](CC(N)=O)C(=O)N[C@H]2C(=O)N[C@H]3C(=O)N[C@H](C(=O)N[C@H](C(=O)O)c4cc(O)cc(O)c4-c4cc3ccc4O)[C@H](O)c3ccc(c(Cl)c3)Oc3cc2cc(c3O[C@@H]2O[C@H](CO)[C@@H](O)[C@H](O)[C@H]2O[C@H]2C[C@](C)(N)[C@H](O)[C@H](C)O2)Oc2ccc(cc2Cl)[C@H]1O | µg/mL | 2
Cc1ccc(NC(=S)N/N=C2\C(=O)Nc3c(C)cccc32)cc1 | µg/mL | 6.25
O=C1Nc2c(Cl)cccc2/C1=N/NC(=S)Nc1ccc(Cl)cc1 | µg/mL | 3.12

Moving on to the next molecule.
Input: Need MIC, item Cc1cccc(NC(=S)N/N=C2\C(=O)Nc3c(I)cccc32)c1
Output: 12.5
